Can you tell me Plant response rating, Chickweed for the items I'm about to list?
test system: chickweed (Stellaria media); test: Test C postemergence; format: in vivo; details: Rate 125 g/ha, scale 0 to 100, 0 no effect, 100 complete control
A bare number is all that is needed in reply.

Fill in: Plant response rating, Chickweed of CCC(C)c1ccn(C2CCN(c3ccc(C)c(OC)c3)C2=O)n1 (stereo not drawn) [Compound 80] is ___
20

Fill in: Plant response rating, Chickweed of CCCC(C)c1ccn(C2OCN(c3cccc(OC(F)(F)F)c3)C2=O)n1 (stereo not drawn) [Compound 91] is ___
80

Fill in: Plant response rating, Chickweed of CCC(C)c1ccn(C2CCN(c3ccc(Br)c(OC)c3)C2=O)n1 (stereo not drawn) [Compound 142] is ___
100

* * *

tested on: johnsongrass (Sorghum halepense); experiment: Test C preemergence; format: in vivo; settings: preemergence; Rate 125 g/ha; scale 0 to 100, 0 no effect, 100 complete control
recorded_metric: Plant response rating, Johnsongrass
A bare number is all that is needed in reply.

Fill in: Plant response rating, Johnsongrass of CC(C)(C)c1ccn(C2SCN(c3cccc(OC(F)(F)F)c3)C2=O)n1 (stereo not drawn) is ___
40

Fill in: Plant response rating, Johnsongrass of O=C1C(n2ccc(C3CCCCC3)n2)SCN1c1cccc(OC(F)(F)F)c1 (stereo not drawn) is ___
40

Fill in: Plant response rating, Johnsongrass of O=C1C(n2ccc(C3CCCCC3)n2)SCN1c1cccc(C(F)(F)F)c1 (stereo not drawn) is ___
40

* * *

System: pigweed (Amaranthus retroflexus)
Assay: Test B postemergence
Type: in vivo
Settings: Rate 125 g/ha, scale 0 (no effect) to 100 (complete control), 13 to 15 days
Experimental: […] At the same time, plants selected from these crop and weed species and also blackgrass (Alopecurus myosuroides), wheat (Triticum aestivum) and wild oat (Avena fatua) were treated with postemergence applications of test chemicals formulated in the same manner. […] Treated plants and controls were maintained in a greenhouse for 13 to 15 days, after which time all species were compared to controls and visually evaluated. […]
Can you tell me Plant response rating, Pigweed for the items I'm about to list?
A bare number is all that is needed in reply.

Fill in: Plant response rating, Pigweed of COc1cc(OC)cc(N2CCC(n3ccc(C(C)(C)C)n3)C2=O)c1 (stereo not shown) is ___
30

Fill in: Plant response rating, Pigweed of CCC(C)c1ccn(C2SCN(c3cccc(OC(F)(F)F)c3)C2=O)n1 (stereo not shown) is ___
40

Fill in: Plant response rating, Pigweed of CCC(C)c1ccn(C2SCN(c3cccc(C(F)(F)F)c3)C2=O)n1 (stereo not shown) is ___
90

Fill in: Plant response rating, Pigweed of O=C1C(n2cc(Cl)c(C3CC3)n2)CCN1c1cccc(C(F)(F)F)c1 (stereo not shown) is ___
0

* * *

tested on: cocklebur (Xanthium strumarium); assay: Test C preemergence; assay type: in vivo; details: preemergence, Rate 500 g/ha, visual evaluation after 12 to 14 days
recorded_metric: Plant response rating (0 to 100), Cocklebur
A bare number is all that is needed in reply.

Fill in: Plant response rating (0 to 100), Cocklebur of CCCC(C)c1ccn(C2OCN(c3cccc(C(F)(F)F)c3)C2=O)n1 (stereo not drawn) is ___
10

Fill in: Plant response rating (0 to 100), Cocklebur of CCC(C)c1ccn(C2CCN(c3cccc(OC(C)C)c3)C2=O)n1 (stereo not drawn) is ___
0

Fill in: Plant response rating (0 to 100), Cocklebur of Cc1ccc(N2CCC(n3ccc(C(C)(C)C)n3)C2=O)cc1I (stereo not drawn) is ___
0

Fill in: Plant response rating (0 to 100), Cocklebur of CC(C)(C)c1ccn(C2CCN(c3cccc(OC(F)F)c3)C2=O)n1 (stereo not drawn) is ___
20

Fill in: Plant response rating (0 to 100), Cocklebur of CCCC(C)c1ccn(C2CCN(c3cccc(C(F)(F)F)c3)C2=O)n1 (stereo not drawn) is ___
0

Fill in: Plant response rating (0 to 100), Cocklebur of CCC(C)c1ccn(C2CCN(c3ccc(Cl)c(OC)c3)C2=O)n1 (stereo not drawn) is ___
50

* * *

system: common ragweed (Ambrosia elatior); assay: Test C preemergence; assay type: in vivo; settings: Rate 125 g/ha; scale 0 to 100, 0 no effect, 100 complete control
recorded_metric: Plant response rating, Ragweed, Common
A bare number is all that is needed in reply.

Fill in: Plant response rating, Ragweed, Common of Cc1cc(C)nc(N2CCC(n3ccc(C(C)(C)C)n3)C2=O)c1 (stereo not drawn) is ___
0

Fill in: Plant response rating, Ragweed, Common of CCC(C)c1ccn(C2OCN(c3cccc(OC(F)F)c3)C2=O)n1 (stereo not drawn) is ___
0

Fill in: Plant response rating, Ragweed, Common of COc1cccc(N2CCC(n3ccc(C(C)(C)C)n3)C2=O)c1 (stereo not drawn) is ___
0

Fill in: Plant response rating, Ragweed, Common of CCC(C)c1ccn(C2CCN(c3ccc(Cl)c(OC)c3)C2=O)n1 (stereo not drawn) is ___
100

Fill in: Plant response rating, Ragweed, Common of COc1cc(N2CCC(n3ccc(C(C)(C)C)n3)C2=O)ccc1Cl (stereo not drawn) is ___
100

Fill in: Plant response rating, Ragweed, Common of CCC(CC)c1ccn(C2CCN(c3cccc(OC(C)C)c3)C2=O)n1 (stereo not drawn) is ___
0

Fill in: Plant response rating, Ragweed, Common of CCCC(C)c1ccn(C2OCN(c3cccc(OC(F)(F)F)c3)C2=O)n1 (stereo not drawn) is ___
0

Fill in: Plant response rating, Ragweed, Common of CC(C)(C)c1ccn(C2CCN(c3cccc([S+]([O-])C(F)(F)F)c3)C2=O)n1 (stereo not drawn) is ___
100

Fill in: Plant response rating, Ragweed, Common of CCC(CC)c1ccn(C2CCN(c3ccc(C)c(OC)c3)C2=O)n1 (stereo not drawn) is ___
100

Fill in: Plant response rating, Ragweed, Common of CCCC(C)c1ccn(C2CCN(c3ccc(Cl)c(OC)c3)C2=O)n1 (stereo not drawn) is ___
90

Fill in: Plant response rating, Ragweed, Common of CCCC(C)c1ccn(C2SCN(c3cccc(C(F)(F)F)c3)C2=O)n1 (stereo not drawn) is ___
0

Fill in: Plant response rating, Ragweed, Common of CC(C)c1cccc(N2CCC(n3ccc(C(C)(C)C)n3)C2=O)c1 (stereo not drawn) is ___
0

* * *

test system: velvetleaf (Abutilon theophrasti); assay: Test C preemergence; format: in vivo; conditions: preemergence, Rate 250 g/ha, visual evaluation after 12 to 14 days
From the text: […]
recorded_metric: Plant response rating (0 to 100), Velvetleaf
A bare number is all that is needed in reply.

I'm curious: which Plant response rating (0 to 100), Velvetleaf was measured for O=C1C(n2ccc(C3CCC3)n2)SCN1c1cccc(C(F)(F)F)c1 (stereo not drawn) [Compound 37] tested on velvetleaf (Abutilon theophrasti)?
20

I'm curious: which Plant response rating (0 to 100), Velvetleaf was measured for CCC(CC)c1ccn(C2SCN(c3cccc(C(F)(F)F)c3)C2=O)n1 (stereo not drawn) [Compound 25] tested on velvetleaf (Abutilon theophrasti)?
70

I'm curious: which Plant response rating (0 to 100), Velvetleaf was measured for O=C1C(n2ccc(C3CCC3)n2)OCN1c1cccc(C(F)(F)F)c1 (stereo not drawn) [Compound 39] tested on velvetleaf (Abutilon theophrasti)?
0

* * *

Can you tell me Plant response rating, Velvetleaf for the items I'm about to list?
tested on: velvetleaf (Abutilon theophrasti); assay: Test C postemergence; type: in vivo; conditions: Rate 500 g/ha, scale 0 to 100 (0 no effect, 100 complete control)
A bare number is all that is needed in reply.

I'm curious: which Plant response rating, Velvetleaf was measured for CCC(C)c1ccn(C2CCN(c3ccc(Cl)c(OC)c3)C2=O)n1 (stereo not shown) [Compound 119] tested on velvetleaf (Abutilon theophrasti)?
20

I'm curious: which Plant response rating, Velvetleaf was measured for CCCC(C)c1ccn(C2OCN(c3cccc(OC(F)(F)F)c3)C2=O)n1 (stereo not shown) [Compound 91] tested on velvetleaf (Abutilon theophrasti)?
0

I'm curious: which Plant response rating, Velvetleaf was measured for CCCC(C)c1ccn(C2CCN(c3ccc(Cl)c(OC)c3)C2=O)n1 (stereo not shown) [Compound 121] tested on velvetleaf (Abutilon theophrasti)?
40

I'm curious: which Plant response rating, Velvetleaf was measured for CCC(C)c1ccn(C2CCN(c3ccc(Br)c(OC)c3)C2=O)n1 (stereo not shown) [Compound 142] tested on velvetleaf (Abutilon theophrasti)?
80

I'm curious: which Plant response rating, Velvetleaf was measured for CCC(CC)c1ccn(C2OCN(c3cccc(OC(F)F)c3)C2=O)n1 (stereo not shown) [Compound 131] tested on velvetleaf (Abutilon theophrasti)?
30

I'm curious: which Plant response rating, Velvetleaf was measured for CCCOc1cc(N2CCC(n3ccc(C(C)(C)C)n3)C2=O)ccc1C (stereo not shown) [Compound 107] tested on velvetleaf (Abutilon theophrasti)?
80

I'm curious: which Plant response rating, Velvetleaf was measured for COc1cc(N2CCC(n3ccc(C(C)C)n3)C2=O)ccc1Cl (stereo not shown) [Compound 120] tested on velvetleaf (Abutilon theophrasti)?
0
